Reference source: patent US11840574B2

- STUDY SYSTEM: Human DR5 (Homo sapiens, UniProt O14763)
- EXPERIMENT DESCRIPTION: Binding affinity of antibody to human DR5 (BIAcore, CM5 chip)
- PROTOCOL CONDITIONS: association rate, Human DR5, 1:1 Langmuir binding model
EXPERIMENTAL ENDPOINT: Ka
Express the reported value numerically, then name its unit.

Hello, please tell me recorded Ka for this one: DA10: humanized or deimmunized variant of parental clone D0; CDRs SEQ ID NO 1, 2, 7 / 4, 10, 13 (antibody, V domains shown) VH: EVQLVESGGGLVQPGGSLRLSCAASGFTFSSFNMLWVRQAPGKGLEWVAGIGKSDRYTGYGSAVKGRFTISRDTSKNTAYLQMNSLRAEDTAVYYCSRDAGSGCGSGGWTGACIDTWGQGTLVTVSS VL: DIQMTQSPSSLSASVGDRVTITCSGGDSYAGSYYYGWYQQKPGKAPKTLIYNNNNRPSGVPSRFSGSRSGTDFTLTISSLQPEDFATYYCGSRDSSYVGIFGQGTKVEIK
2.3e+06 M⁻¹ s⁻¹
